Reported pIC50 values follow for various compounds
# experimental-target: human integrin αVβ6 (Homo sapiens, UniProt P06756+P18564)
# Sequence (P06756 31-992 limits assumed): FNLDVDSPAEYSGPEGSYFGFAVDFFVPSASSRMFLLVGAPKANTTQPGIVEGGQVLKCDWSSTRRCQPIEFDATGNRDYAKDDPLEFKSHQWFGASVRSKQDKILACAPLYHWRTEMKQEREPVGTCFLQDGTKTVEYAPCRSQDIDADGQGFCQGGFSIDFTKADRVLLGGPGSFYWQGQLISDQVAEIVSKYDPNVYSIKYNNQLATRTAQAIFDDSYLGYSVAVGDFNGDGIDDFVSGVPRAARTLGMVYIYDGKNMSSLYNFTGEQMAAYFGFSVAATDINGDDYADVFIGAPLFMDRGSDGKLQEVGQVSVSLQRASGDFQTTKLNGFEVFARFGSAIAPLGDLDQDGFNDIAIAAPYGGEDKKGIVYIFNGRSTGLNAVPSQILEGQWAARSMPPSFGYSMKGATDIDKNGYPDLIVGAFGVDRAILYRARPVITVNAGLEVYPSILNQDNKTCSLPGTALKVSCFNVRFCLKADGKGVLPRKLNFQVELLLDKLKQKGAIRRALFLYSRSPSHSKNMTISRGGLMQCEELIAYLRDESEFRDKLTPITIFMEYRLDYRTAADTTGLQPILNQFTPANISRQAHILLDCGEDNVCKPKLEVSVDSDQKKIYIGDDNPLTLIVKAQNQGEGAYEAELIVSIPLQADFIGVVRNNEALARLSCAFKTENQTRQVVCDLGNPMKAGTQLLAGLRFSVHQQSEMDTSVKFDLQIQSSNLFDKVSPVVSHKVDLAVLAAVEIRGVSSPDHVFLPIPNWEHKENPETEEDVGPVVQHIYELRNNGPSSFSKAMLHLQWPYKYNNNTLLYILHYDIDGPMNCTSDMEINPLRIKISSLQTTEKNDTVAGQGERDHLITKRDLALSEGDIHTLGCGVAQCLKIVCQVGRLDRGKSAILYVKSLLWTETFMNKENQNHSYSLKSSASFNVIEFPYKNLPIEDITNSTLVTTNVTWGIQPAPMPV
# Sequence (P18564 22-707 limits assumed): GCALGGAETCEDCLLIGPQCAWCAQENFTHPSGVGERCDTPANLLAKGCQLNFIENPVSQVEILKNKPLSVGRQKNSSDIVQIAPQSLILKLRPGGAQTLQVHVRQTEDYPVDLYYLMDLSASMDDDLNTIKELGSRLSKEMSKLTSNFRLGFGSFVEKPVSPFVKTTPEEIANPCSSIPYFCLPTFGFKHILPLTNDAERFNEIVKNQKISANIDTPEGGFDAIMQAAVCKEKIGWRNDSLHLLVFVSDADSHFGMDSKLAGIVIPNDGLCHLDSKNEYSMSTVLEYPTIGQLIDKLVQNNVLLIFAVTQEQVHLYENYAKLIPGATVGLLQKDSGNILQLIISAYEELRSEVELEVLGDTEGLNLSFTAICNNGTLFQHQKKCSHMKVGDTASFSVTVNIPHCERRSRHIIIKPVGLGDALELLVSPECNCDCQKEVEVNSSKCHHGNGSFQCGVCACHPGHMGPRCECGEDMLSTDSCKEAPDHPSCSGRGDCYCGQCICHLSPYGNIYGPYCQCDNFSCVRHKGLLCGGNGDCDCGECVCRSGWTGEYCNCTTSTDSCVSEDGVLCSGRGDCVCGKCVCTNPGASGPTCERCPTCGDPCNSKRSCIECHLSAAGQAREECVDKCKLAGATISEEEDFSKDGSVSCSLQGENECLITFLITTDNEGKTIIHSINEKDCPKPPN
# method-summary: AlphaScreen proximity-based integrin binding assay with TGF-b1 LAP
# condition-info: values given as ranges
pIC50: −log10 of the molar value.

Solved cases (5 shown):
O=C(O)[C@H](CCOCCCCc1ccc2c(n1)NCCC2)NC(=O)C1(c2cncnc2C(F)(F)F)CC1 [Compound 48] : ≤ 6.30
O=C(O)[C@H](CCOCCCCc1ccc2c(n1)NCCC2)NC(=O)C1(n2ccc(Cl)n2)CC1 [Compound 55] : ≤ 6.30
Cc1ncnc(O)c1C1(C(=O)N[C@@H](CCOCCCCc2ccc3c(n2)NCCC3)C(=O)O)CC1 [Compound 102] : < 6.30
O=C(O)[C@H](CCOCCCCc1ccc2c(n1)NCCC2)NC(=O)C1(C(F)F)CCOC1 (stereo partly shown) [Compound 83] : 6.30 to 6.60
O=C(O)[C@H](CCOCCCCc1ccc2c(n1)NCCC2)NC(=O)C1(c2ccccc2Cl)CC1 [Compound 6] : ≤ 6.30

Please report the measured pIC50 for O=C(O)[C@H](CCOCCCCc1ccc2c(n1)NCCC2)NC(=O)C1(c2ncnc3ccccc23)CC1 [Compound 31]
≤ 6.30

Name the recorded pIC50 of the item O=C(O)[C@H](CCOCCCCc1ccc2c(n1)NCCC2)NC(=O)C1(c2ccc(F)cc2)CCOCC1 [Compound 85] in your answer.
< 6.30

Sourced from patent US20240245682A1
